B1: tRNA (parent)
chain: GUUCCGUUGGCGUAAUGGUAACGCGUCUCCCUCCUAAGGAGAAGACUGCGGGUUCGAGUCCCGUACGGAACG

- Variants of: B1
- measurement_notes: yeast fitness relative to wild type (ratio to wild type); higher = fitter; tRNA-Arg(CCU), competitive growth, 37 C, YPD
Variants at the floor of the assay were thinned out.
Overview of recorded yeast fitness for various variants
Give a plain numeric answer without units written out.

Observe how each entry below is paired with its result.
input_sequence	yeast fitness
GUUCCGUUGGCGUAAUGGCAACGCGUCUCCCUCCUAAGGAGAAGGCUGCGGGUUCGAGUCCUGUACGGAACG [U19C A45G C62U]	0.953
GUUCCGUUGGCGUAAUGGUAACGCGUCUCCCUCCUAAGGAGAAGAAUGGGGGUUCGAGUCCCGUACGGAACG [C46A C49G]	0.746
GUUCCGAUAGCGAAAUGGUAACGCGUCUCCCUCCUAAGGAGAAGACUGCGGGUUCGAGUCCCGUACGGAACG [U7A G9A U13A]	0.6
GUCCCGUUGGCGUAAUGGUAACGCGUCUCCCACCUAAGGAGAAGACUGCGGGUUCGAGUCCCGUACGGAACG [U3C U32A]	0.817
GUUCCGUUGGCGUAAUGGUAACGCGUCUCCCUCCUAAGGAGGAGACUGCGGGUUCGAGUCCUGUACGGCACG [A42G C62U A69C]	0.696
GUUCCGUUGGCGUAAUGAUAACGCGUCUCCCUCCUAAGGACCAGACUGUGGGUUCGAGUCCCGUACGGAACG [G18A G41C A42C C49U]	0.522
GUUCCGUUGGCGUAAUGGUAACGCGUCUCCCUCCUAAGGAGUAGACUGCGGGUUCGAGUCUCGUACGGAACG [A42U C61U]	0.827
GUUGCGUUGGCGUAAUGGUAACGCGUCUCCCUCCUAAGCAGAAGACUGCGGGUUCGAGUCCCGUACGGAACG [C4G G39C]	0.747
GUUCCGUUGGCGUCAUGGUAACGCGUCUCCCUCCUAAGGAGAAGACUGCGGGUUCGAGUCCCGUACGUAACG [A14C G68U]	0.583
GUUCGGUUGGCGUAAUGGUAACGCGUCUCCCUCCUAAGGAGAAGACUGCGGGUCCGAGUCCCGUACGGAACG [C5G U54C]	0.814

q: For the variant GUGCCGUUGGCGUAAUGGUAACGCGUCUCCCUCCUAAGGAGAAGACUGCGGGUUCGAGUCCCGUACGGAACG [U3G] , give its reported yeast fitness.
a: 0.978

q: For the variant GUUCCGUUGGCGUAAUGGUAACGCGUCUCCCUCCUAAGGAGCAGAGUGCGGGUUCGAGUCCCGUAAGGAACG [A42C C46G C66A] , give its reported yeast fitness.
a: 0.552

q: For the variant GUUCCGUUGGCGUAAUGGUAACGCGUCUCCCUCCUAAGGAGAAGAUUGCGGGUUCGUGUCCCGUACGGAACG [C46U A57U] , give its reported yeast fitness.
a: 1

q: For the variant GUUCCGUUGGAGUAAUGGUAACGCGUCUCCCUCCUAAGGAGGAGACUGCGGGUUCGAGUCCCGUACGGAACG [C11A A42G] , give its reported yeast fitness.
a: 0.631

q: For the variant GUUCCGUUGGCGUAAUGGUAACGCGUCUCCCUCCUAAAGAGAAGACUGCGGGUUCAAGUCCCGUACGGAUCG [G38A G56A A70U] , give its reported yeast fitness.
a: 0.7

q: For the variant GUUCCGUUGCCGAAAUGGUAACGCGUCUCCCUCCUAAGGAGAAGACUGCGGGUUCGAGUCCCGUACGGAACG [G10C U13A] , give its reported yeast fitness.
a: 0.549

q: For the variant GUUGCGUUGGCGUAACGGUAACGCGUCUCCCUCCUAAGGAGAAGACUGCGGGUUCGAGUCCCGUACGGAACG [C4G U16C] , give its reported yeast fitness.
a: 0.806

q: For the variant GUUCCGUUGGCGUAAUCGUAACGCGUCUCCCUCCUAAGGAGAAGACUCCGGGUUCGAGUCCCGUACGGAACG [G17C G48C] , give its reported yeast fitness.
a: 0.709

q: For the variant GUUCCGUUGGUGUAAUGGUAACGCGUCUUGCUCCUAAGGAGAAGACUGCGGGUUCGAGUCCCGUACGGAACG [C11U C29U C30G] , give its reported yeast fitness.
a: 0.549

q: For the variant GUUCCGUUGGCGUAAUGGUAACGCGUCUCCCUCCUAAGGAGAAGACUGGGGGUUGGAGUCGCGUACGGAACG [C49G C55G C61G] , give its reported yeast fitness.
a: 0.558

q: For the variant GUUCCGUUGGCGUAAUGGUAACGCGGCUACCUCCUAAGGAGCAGACUGCGGGUUCGAGUCCCGUACGGAACG [U26G C29A A42C] , give its reported yeast fitness.
a: 0.586

q: For the variant GAUCCGUUGGCGUAAUGGUAACGCGUCUCCCUCCUAAGGAGAAGACAGCGGGUUCGAGUCCCGUACGGAACG [U2A U47A] , give its reported yeast fitness.
a: 0.851
